# assay.target: integrin α4β1 (RAMOS human cells adhering to VCAM-1) (Homo sapiens, UniProt P05556+P13612)
# Construct: Ramos cells, which express integrin α4β1; host or cells: RAMOS
# Sequence (P13612 34-1032): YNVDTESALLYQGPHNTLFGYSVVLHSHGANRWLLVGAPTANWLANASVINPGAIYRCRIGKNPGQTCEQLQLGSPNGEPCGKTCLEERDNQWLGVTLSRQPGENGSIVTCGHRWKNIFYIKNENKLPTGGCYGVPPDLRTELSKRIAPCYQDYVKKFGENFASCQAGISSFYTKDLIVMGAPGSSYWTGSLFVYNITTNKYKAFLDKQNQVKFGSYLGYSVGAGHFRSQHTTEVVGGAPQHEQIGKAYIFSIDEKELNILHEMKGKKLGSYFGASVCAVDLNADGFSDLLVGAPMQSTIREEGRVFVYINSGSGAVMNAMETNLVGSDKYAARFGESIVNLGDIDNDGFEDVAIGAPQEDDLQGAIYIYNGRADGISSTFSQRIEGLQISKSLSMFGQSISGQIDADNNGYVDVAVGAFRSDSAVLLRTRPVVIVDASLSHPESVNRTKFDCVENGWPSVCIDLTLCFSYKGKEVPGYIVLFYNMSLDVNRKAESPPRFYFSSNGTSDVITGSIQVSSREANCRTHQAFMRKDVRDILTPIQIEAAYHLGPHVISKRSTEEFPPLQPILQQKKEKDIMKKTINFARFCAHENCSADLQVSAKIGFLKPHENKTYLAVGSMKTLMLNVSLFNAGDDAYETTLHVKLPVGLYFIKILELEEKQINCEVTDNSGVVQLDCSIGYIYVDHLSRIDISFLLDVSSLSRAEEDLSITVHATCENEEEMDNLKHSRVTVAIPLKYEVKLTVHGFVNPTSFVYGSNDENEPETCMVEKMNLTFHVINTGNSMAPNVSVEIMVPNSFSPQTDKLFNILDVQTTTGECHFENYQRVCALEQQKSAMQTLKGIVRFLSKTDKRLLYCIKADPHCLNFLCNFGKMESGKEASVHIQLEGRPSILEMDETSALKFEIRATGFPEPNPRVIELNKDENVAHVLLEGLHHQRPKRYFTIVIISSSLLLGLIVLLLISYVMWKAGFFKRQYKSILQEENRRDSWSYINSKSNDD
# Sequence (P05556 21-798): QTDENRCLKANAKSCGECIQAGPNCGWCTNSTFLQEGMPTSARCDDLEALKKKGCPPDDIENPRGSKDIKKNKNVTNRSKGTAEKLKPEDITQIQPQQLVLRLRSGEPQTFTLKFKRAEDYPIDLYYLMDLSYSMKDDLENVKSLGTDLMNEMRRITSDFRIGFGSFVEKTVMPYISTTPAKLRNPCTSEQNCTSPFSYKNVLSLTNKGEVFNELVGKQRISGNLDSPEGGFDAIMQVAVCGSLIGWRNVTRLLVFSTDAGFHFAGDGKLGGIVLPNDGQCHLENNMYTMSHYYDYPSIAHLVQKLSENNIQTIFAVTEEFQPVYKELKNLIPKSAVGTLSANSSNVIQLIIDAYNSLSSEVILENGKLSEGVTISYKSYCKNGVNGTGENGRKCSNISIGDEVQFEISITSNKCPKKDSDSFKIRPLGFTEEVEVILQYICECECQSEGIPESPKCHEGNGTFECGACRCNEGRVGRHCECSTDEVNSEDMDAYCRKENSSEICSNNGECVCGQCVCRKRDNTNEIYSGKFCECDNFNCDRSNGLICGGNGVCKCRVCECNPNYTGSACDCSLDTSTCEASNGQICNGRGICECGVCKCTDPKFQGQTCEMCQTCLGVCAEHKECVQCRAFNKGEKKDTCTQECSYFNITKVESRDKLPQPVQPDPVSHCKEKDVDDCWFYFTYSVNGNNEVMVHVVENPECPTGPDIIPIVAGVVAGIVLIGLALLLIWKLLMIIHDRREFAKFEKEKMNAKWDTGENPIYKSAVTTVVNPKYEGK
# protocol.description: Integrin α4β1-VCAM cell adhesion assay (RAMOS cells)
# Format: cell-based
# measurement.conditions: ratio of cell adhesion IC50s, Ramos α4β1/VCAM over RPMI8866 α4β7/MAdCAM
reported.property: Ratio Ramos/RPMI
Give a plain numeric answer without units written out.

// Ratio Ramos/RPMI value for CC(C)C[C@@H]1NC(=O)c2ccc(-c3ccc(N4CCN(C(=O)c5ccc(C(=O)N6CCN(c7ccc(-c8ccc9cc8CNC(=O)[C@@H]8CCCN8[C@H](C(=O)NC(C)(C)C)[C@H](C)NC(=O)[C@H]([C@@H](C)O)NC(=O)[C@H](CC(=O)O)NC(=O)[C@H](CC(C)C)NC9=O)cc7)CC6)s5)CC4)cc3)c(c2)CNC(=O)[C@@H]2CCCN2[C@H](C(=O)NC(C)(C)C)[C@H](C)NC(=O)[C@H]([C@@H](C)O)NC(=O)[C@H](CC(=O)O)NC1=O : 66

Data provenance: patent US11713338B2
